assay: Selectivity ratio of IC50 for MDCK cells to EC90 for Influenza A virus Wisconsin/67/2005/H3N2 by virus yield reduction assay; assay type: ADME, cell-based; conditions: dog, MDCK cells
metric-name: selectivity ratio

Notebook: Nc1ccn([C@H]2C[C@@H](CO)[C@H](O)[C@@H]2O)c(=O)n1 , selectivity ratio read as < 10

Kindly note the recorded selectivity ratio for Nc1ccn([C@@H]2C[C@H](CO)[C@@H](O)[C@H]2O)c(=O)n1 , which is > 166

Lab book: selectivity ratio of NC(=O)c1ncn([C@@H]2O[C@H](CO)[C@@H](O)[C@H]2O)n1 noted as > 60

----------
experiment: Selectivity ratio of IC50 for MDCK cells to EC50 for inhibition of virus-induced cytopathic effect of Influenza A virus Gull/PA/4175/83/H5N1; format: cell-based; settings: dog, MDCK cells; read-out: Ratio IC50/EC50
metric-name: selectivity ratio

selectivity ratio in this record for Nc1ccn([C@H]2C[C@@H](CO)[C@H](O)[C@@H]2O)c(=O)n1 : < 10

Kindly note the recorded selectivity ratio for NC(=O)c1ncn([C@@H]2O[C@H](CO)[C@@H](O)[C@H]2O)n1 , which is > 55

Looking up Nc1ccn([C@@H]2C[C@H](CO)[C@@H](O)[C@H]2O)c(=O)n1 , I see its selectivity ratio listed as > 518

----------
assay: Selectivity ratio of IC50 for MDCK cells to EC50 for inhibition of virus-induced cytopathic effect of Influenza A virus Hong Kong/213/2003/H5N1; type: cell-based; conditions: dog, read-out: Ratio IC50/EC50
I'd appreciate it if you could supply selectivity ratio values for the items below.

Item: Nc1ccn([C@H]2C[C@@H](CO)[C@H](O)[C@@H]2O)c(=O)n1 | selectivity ratio: < 10

// field: selectivity ratio; key: Nc1ccn([C@@H]2C[C@H](CO)[C@@H](O)[C@H]2O)c(=O)n1 ; value = > 591

Kindly note the recorded selectivity ratio for NC(=O)c1ncn([C@@H]2O[C@H](CO)[C@@H](O)[C@H]2O)n1 , which is > 305

----------
test system: Influenza A virus (A/Puerto Rico/8/1934(H1N1)); assay: Antiviral activity against Influenza A virus Solomon Islands/03/2006/H1N1 infected MDCK cells after 42 to 46 hrs by neutral red dye uptake assay; assay type: functional, organism-based, Influenza A virus (A/Solomon Islands/3/2006(H1N1)); conditions: Influenza A virus, MDCK
metric-name: pEC50
In simple prose, pEC50 is minus the logarithm base ten of a concentration in moles per litre.

For record NC(=O)c1ncn([C@@H]2O[C@H](CO)[C@@H](O)[C@H]2O)n1 [RIBAVIRIN] the listed pEC50 is 4.60

----------
tested on: H5N1 subtype; assay: Antiviral activity against Influenza A virus Gull/PA/4175/83/H5N1 infected MDCK cells after 42 to 46 hrs by neutral red dye uptake assay; format: functional, organism-based, Influenza A virus (A/gull/Pennsylvania/4175/83(H5N1)); settings: mdck
metric-name: EC50 (µM)
All answers are understood in µM, so give the number only.

Nc1ccn([C@@H]2C[C@H](CO)[C@@H](O)[C@H]2O)c(=O)n1 (racemic) on H5N1 subtype gives EC50 = 1.4

----------
tested on: Influenza B virus; experiment: Antiviral activity against Influenza B virus Malaysia/2506/2004 infected MDCK cells after 42 to 46 hrs by neutral red dye uptake assay; assay type: functional, organism-based, B/Malaysia/2506/2004; details: mdck
metric-name: EC50 (nM)
Quick note: give the figure in nM, leave out the unit.

EC50 for Nc1ccn([C@@H]2C[C@H](CO)[C@@H](O)[C@H]2O)c(=O)n1 (racemic) is 1300

FYI, the data here is from ChEMBL document CHEMBL1156973.
